target: Sodium channel protein type 9 subunit alpha (Homo sapiens, UniProt Q15858); assay: Inhibition of human Nav1.7 expressed in Xenopus laevis oocytes at closed state at 1 uM by two electrode voltage-clamp assay; assay type: cell-based; conditions: Oocyte
Sequence (Q15858 whole entry, looked up): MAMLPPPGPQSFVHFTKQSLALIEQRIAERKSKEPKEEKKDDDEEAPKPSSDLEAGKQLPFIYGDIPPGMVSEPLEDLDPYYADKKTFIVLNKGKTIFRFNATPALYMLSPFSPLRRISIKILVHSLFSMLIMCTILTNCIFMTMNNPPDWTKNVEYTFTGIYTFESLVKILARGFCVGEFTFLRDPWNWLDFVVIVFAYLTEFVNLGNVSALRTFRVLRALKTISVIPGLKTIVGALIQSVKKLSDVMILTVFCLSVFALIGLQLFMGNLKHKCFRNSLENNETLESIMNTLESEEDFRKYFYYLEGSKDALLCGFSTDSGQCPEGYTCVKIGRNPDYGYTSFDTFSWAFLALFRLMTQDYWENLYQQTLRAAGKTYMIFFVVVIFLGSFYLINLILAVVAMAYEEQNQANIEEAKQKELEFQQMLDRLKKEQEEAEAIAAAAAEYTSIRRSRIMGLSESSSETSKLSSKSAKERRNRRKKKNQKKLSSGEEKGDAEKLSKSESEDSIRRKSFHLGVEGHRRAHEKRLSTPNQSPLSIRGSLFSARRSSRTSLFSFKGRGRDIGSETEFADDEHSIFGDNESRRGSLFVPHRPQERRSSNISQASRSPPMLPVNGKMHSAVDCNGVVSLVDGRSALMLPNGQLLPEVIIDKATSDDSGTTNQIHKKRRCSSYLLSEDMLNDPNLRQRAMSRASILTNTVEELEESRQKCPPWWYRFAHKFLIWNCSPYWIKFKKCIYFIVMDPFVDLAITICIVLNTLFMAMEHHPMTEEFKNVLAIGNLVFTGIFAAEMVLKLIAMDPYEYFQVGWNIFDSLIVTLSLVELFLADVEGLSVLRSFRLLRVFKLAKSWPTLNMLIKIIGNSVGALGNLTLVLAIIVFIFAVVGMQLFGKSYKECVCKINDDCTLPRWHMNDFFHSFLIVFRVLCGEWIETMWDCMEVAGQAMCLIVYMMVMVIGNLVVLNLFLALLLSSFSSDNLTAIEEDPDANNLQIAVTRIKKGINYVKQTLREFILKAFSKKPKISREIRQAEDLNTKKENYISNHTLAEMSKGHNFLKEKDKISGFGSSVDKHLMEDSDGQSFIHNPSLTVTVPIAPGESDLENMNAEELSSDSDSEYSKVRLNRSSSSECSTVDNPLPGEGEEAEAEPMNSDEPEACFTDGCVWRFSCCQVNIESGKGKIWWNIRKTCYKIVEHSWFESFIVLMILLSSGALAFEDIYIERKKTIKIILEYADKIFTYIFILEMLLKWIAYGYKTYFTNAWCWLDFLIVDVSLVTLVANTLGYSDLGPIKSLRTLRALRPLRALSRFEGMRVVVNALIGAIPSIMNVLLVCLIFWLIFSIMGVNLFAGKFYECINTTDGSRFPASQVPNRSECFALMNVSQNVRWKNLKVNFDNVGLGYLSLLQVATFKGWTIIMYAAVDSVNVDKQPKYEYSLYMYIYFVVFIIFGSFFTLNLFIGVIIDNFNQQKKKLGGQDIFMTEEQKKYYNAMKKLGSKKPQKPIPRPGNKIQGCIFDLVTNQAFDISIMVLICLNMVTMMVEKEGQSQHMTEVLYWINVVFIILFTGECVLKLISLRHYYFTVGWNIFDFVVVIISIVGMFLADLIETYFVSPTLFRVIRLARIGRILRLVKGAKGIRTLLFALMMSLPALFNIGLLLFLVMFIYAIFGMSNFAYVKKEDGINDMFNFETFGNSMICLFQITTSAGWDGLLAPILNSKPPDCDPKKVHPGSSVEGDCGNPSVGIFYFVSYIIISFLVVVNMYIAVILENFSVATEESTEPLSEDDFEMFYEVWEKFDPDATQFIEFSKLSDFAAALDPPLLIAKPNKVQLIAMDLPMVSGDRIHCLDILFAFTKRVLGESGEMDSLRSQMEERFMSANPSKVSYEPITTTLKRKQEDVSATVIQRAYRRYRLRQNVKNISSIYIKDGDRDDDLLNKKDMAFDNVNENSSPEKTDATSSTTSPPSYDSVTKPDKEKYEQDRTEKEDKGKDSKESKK
Active and inactive are the calls of the source. The calls are words filed in the database; no cut-off is given here.
TEST_READOUT: inhibition

| COMPOUND | ASSAYED_TARGET | inhibition |
| --- | --- | --- |
| CS(=O)(=O)NC(=O)c1ccc(NC(=O)c2cccn2Cc2ccc(Cl)cc2)cc1 | Sodium channel protein type 9 subunit alpha (Homo sapiens, UniProt Q15858) | inactive |
| CS(=O)(=O)NC(=O)c1cccc(OC[C@@H]2C[C@H]2c2ccccc2)c1 | Sodium channel protein type 9 subunit alpha (Homo sapiens, UniProt Q15858) | inactive |
| CC(Oc1ccc(Cl)cc1)C(=O)Nc1ccc(S(=O)(=O)Nc2nccs2)cc1 (stereo not drawn) | Sodium channel protein type 9 subunit alpha (Homo sapiens, UniProt Q15858) | inactive |
| O=C(Nc1ccc(S(=O)(=O)Nc2nccs2)cc1)C1CC1c1ccc(F)c(F)c1 (racemic) | Sodium channel protein type 9 subunit alpha (Homo sapiens, UniProt Q15858) | inactive |
| CS(=O)(=O)NC(=O)c1ccc(NC(=O)[C@@H]2C[C@H]2c2ccccc2)cc1 | Sodium channel protein type 9 subunit alpha (Homo sapiens, UniProt Q15858) | inactive |
| CS(=O)(=O)NC(=O)c1ccc(NC(=O)C2CC2c2ccc(F)c(F)c2)cc1 (racemic) | Sodium channel protein type 9 subunit alpha (Homo sapiens, UniProt Q15858) | inactive |

Exam item: Which inhibition is reported with Sodium channel protein type 9 subunit alpha (Homo sapiens, UniProt Q15858) for this entry: O=C(Nc1ccc(S(=O)(=O)Nc2nccs2)cc1)C1Cc2cc(Cl)ccc2O1 (stereo not drawn) ?
Marked response: inactive

Exam item: What value of inhibition on Sodium channel protein type 9 subunit alpha (Homo sapiens, UniProt Q15858) does Cc1nn(C)cc1/C=C(\C#N)C(=O)Nc1ccc(S(=O)(=O)Nc2nccs2)cc1 have?
Marked response: inactive
